molecular target: HLA A2.1 molecule (Homo sapiens, UniProt P04439, D140Y/D185E/D98H/E176V/E277Q/G131W/G231S/I119V/I121R/I166T/I218V/L300P/L318F/N151K/N90K/P208A/P217A/Q86G/Q94H/R138H/R169H/T345S); assay: Stability of the peptide/HLA A2.1 complex (DC50) on T2 cells, flow cytometry; type: binding; settings: native peptides; time for loss of 50% of HLA A2.1/peptide complexes
metric: DC50 (h)

> print(dat)
                                   seq.text  unit  qualifier  result
1  VLVKSPNHV [HER-2/neu 851, reference compound]     h          =       4
2  AMLGTHTMEV [gp100 177, reference compound]     h          >       6
3  TDQVPFSV [gp100 209, reference compound]     h          =       4
4  ELVSEFSRM [HER-2/neu 971, reference compound]     h          =       2
5  YLVPQQGFFC [HER-2/neu 1023, reference compound]     h          =       4
